# TARGET_OF_ASSAY: GAK (Homo sapiens, UniProt O14976)
# Sequence (O14976 12-347 limits assumed): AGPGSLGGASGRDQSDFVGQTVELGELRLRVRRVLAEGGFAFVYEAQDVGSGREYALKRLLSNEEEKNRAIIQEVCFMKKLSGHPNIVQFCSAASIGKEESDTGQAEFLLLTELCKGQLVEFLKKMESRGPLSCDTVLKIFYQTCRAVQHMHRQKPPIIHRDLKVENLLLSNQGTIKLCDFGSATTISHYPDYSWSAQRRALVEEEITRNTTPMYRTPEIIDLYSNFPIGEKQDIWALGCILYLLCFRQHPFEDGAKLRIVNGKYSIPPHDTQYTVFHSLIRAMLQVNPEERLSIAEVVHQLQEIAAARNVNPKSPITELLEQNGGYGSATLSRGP
# METHOD_NOTES: biochemical
QUANTITY_NAME: Ki (nM)

# COMPOUND, UNIT_TAG, Ki
measured = [
    ("C#Cc1cccc(Nc2ncnc3cc(F)c(F)cc23)c1 [compound 57, 57]", "nM", 85),
    ("C#Cc1cccc(Nc2ncnc3ccccc23)c1 [compound 54, 54]", "nM", 170),
    ("C#Cc1cccc(Nc2ncnc3cc4c(cc23)OCO4)c1 [compound 73, 73]", "nM", 19),
    ("C#Cc1cccc(Nc2ncnc3cc(C(F)(F)F)ccc23)c1 [compound 66, 66]", "nM", 88),
    ("C#Cc1cccc(Nc2ncnc3cc(OC)ccc23)c1 [compound 72, 72]", "nM", 8.8),
    ("C#Cc1cccc(Nc2ncnc3ccc(C#N)cc23)c1 [compound 68, 68]", "nM", 170),
    ("C#Cc1cccc(Nc2ncnc3ccc(Br)cc23)c1 [compound 59, 59]", "nM", 28),
    ("C#Cc1cccc(Nc2ncnc3ccc(C)cc23)c1 [compound 55, 55]", "nM", 43),
    ("C#Cc1cccc(Nc2ncnc3ccc(Cl)cc23)c1 [compound 58, 58]", "nM", 30),
]

I: C#Cc1cccc(Nc2ncnc3ccc(C(F)(F)F)cc23)c1 [compound 61, 61]
II: C#Cc1cccc(Nc2ncnc3ccc(I)cc23)c1 [compound 60, 60]
// task: argmin of Ki over [ I , II ] State your choice using its label.
II
(II: 44 nM, I: 150 nM)
